Recorded TGI by entry
Test system: DLD-1 colon
assay_protocol: NCI tumour cell line growth inhibition, 48 h

[
  {
    "molecule": "CCCCCC(O)C1C(=O)OC(C)C(O)/C=C/C=C/C=C/C=C/C=C(\\C)C(O)C(O)C(O)CC(O)CC(O)CC(O)CC(O)CC1O (stereo not given)",
    "TGI": "3.32 µM"
  },
  {
    "molecule": "Cc1cc(N(CCC#N)CCC#N)ccc1C=Nc1ccc(C(=O)NN2C(=O)/C(=C/c3ccc(N(CCC#N)CCC#N)cc3)N=C2c2cc([N+](=O)[O-])ccc2Cl)cc1",
    "TGI": "> 100 µM"
  },
  {
    "molecule": "COC(=O)C1=CC2OC1(C)CCC2=O (stereo not given)",
    "TGI": "> 100 µM"
  },
  {
    "molecule": "COC(=O)CCC(=O)NC1C2CC3CC(C2)CC1C3 (stereo not given)",
    "TGI": "> 100 µM"
  },
  {
    "molecule": "O=C(O)CCSC(=O)Nc1ccc(N=Nc2ccccc2)cc1",
    "TGI": "> 100 µM"
  },
  {
    "molecule": "O=C(/C=C1/Nc2ccc([N+](=O)[O-])cc2NC1O)c1cccc([N+](=O)[O-])c1 (stereo not given)",
    "TGI": "> 100 µM"
  },
  {
    "molecule": "CC1(C)OC(=O)C=C([O-])O1.CC1(C)OC(=O)C=C([O-])O1.CC[O-].CC[O-].[Ti+4]",
    "TGI": "> 100 µM"
  },
  {
    "molecule": "CC12Oc3ccc4ccccc4c3CC1Cc1c(ccc3ccccc13)O2 (stereo not given)",
    "TGI": "> 100 µM"
  },
  {
    "molecule": "O=C(O)c1ccccc1NC(=O)C1CCCCC1",
    "TGI": "> 100 µM"
  },
  {
    "molecule": "CC(=O)NNc1nc(C)c(C(=O)NNC(=O)C(=O)Nc2c(C)cccc2C(C)(C)C)s1",
    "TGI": "> 100 µM"
  }
]

* * *

This document collects GI50 values reported for SW-620 colon.

[
  {
    "compound": "COC(=O)[C@@H](C)C[C@H](Cc1ccccc1)NC(=O)c1csc([C@@H](C[C@H](C(C)C)N(C)C(=O)[C@H](C)NC(=O)[C@H]2CCCCN2C)OC(C)=O)n1",
    "GI50": "861 nM"
  },
  {
    "compound": "Cc1ccc2c(=O)cc(-c3sc4ccccc4c3C)[nH]c2n1",
    "GI50": "19800 nM"
  },
  {
    "compound": "CC1(C)OC(=O)C=C([O-])O1.CC1(C)OC(=O)C=C([O-])O1.CC[O-].CC[O-].[Ti+4]",
    "GI50": "> 100000 nM"
  },
  {
    "compound": "Cc1nc(Nc2nc3ccccc3o2)nc(-c2cccc([N+](=O)[O-])c2)c1C(=O)Nc1ccc(F)c(Cl)c1",
    "GI50": "3090 nM"
  },
  {
    "compound": "Cc1ccc(-c2nc(N3CCCNCC3)c3oc(-c4ccc(C)cc4)nc3n2)cc1",
    "GI50": "1660 nM"
  },
  {
    "compound": "O=S(=O)(NCCNc1nccc(-c2c(-c3ccc(F)cc3)nc3sccn23)n1)c1ccccc1",
    "GI50": "6550 nM"
  },
  {
    "compound": "CCn1c2ccccc2c2cc(C(O)c3cccc4ncccc34)ccc21 (stereo not drawn)",
    "GI50": "39.9 nM"
  },
  {
    "compound": "CO[C@H]1CC(c2ccc[nH]2)=N[C@]12O[C@@H](C)C[C@@H]1CCCCCCCc3ccc([nH]3)[C@H]12",
    "GI50": "1050 nM"
  }
]

* * *

Recorded TGI by entry
Tested on: RXF 393 renal
assay_protocol: NCI tumour cell line growth inhibition, 48 h

[
  {
    "compound": "C/C(=N\\Nc1nc2ccccc2s1)c1cc(C)ncn1",
    "assayed_target": "RXF 393 renal",
    "TGI": "20 µM"
  },
  {
    "compound": "COc1ccc2c(c1OC)C(=O)c1cnccc1C2=O",
    "assayed_target": "RXF 393 renal",
    "TGI": "> 100 µM"
  },
  {
    "compound": "C=C(C)C12CC3CC/C(=N/O)C(C1)C3(N1CCOCC1)C/C2=N/O (stereo unspecified)",
    "assayed_target": "RXF 393 renal",
    "TGI": "> 100 µM"
  },
  {
    "compound": "N#Cc1nc(COCCOCc2ccc(F)cc2)oc1N",
    "assayed_target": "RXF 393 renal",
    "TGI": "> 100 µM"
  },
  {
    "compound": "CC(C)(C)C1CCC2c3c([nH]c4ccccc34)C3C(=O)N(c4ccc5c(c4)C(=O)c4ccccc4C5=O)C(=O)C3C2C1 (stereo unspecified)",
    "assayed_target": "RXF 393 renal",
    "TGI": "> 100 µM"
  },
  {
    "compound": "Cc1cc2c(cc1Cl)SC(NNc1ccc([N+](=O)[O-])cc1)=NS2(=O)=O",
    "assayed_target": "RXF 393 renal",
    "TGI": "> 10 µM"
  },
  {
    "compound": "CN1C(=O)C2C=C3CCCCC3=CC2N(C)C1=O (stereo unspecified)",
    "assayed_target": "RXF 393 renal",
    "TGI": "> 100 µM"
  },
  {
    "compound": "NC(=O)c1cccc([C@@H]2O[C@H](CO)[C@@H](O)[C@H]2O)c1",
    "assayed_target": "RXF 393 renal",
    "TGI": "34.6 µM"
  },
  {
    "compound": "O=S(=O)(C/C(=N\\O)c1ccccc1)c1ccccc1",
    "assayed_target": "RXF 393 renal",
    "TGI": "> 100 µM"
  },
  {
    "compound": "COc1cc(Cl)cc(-c2nn(-c3cccc(NC(=O)Nc4ccc(Cl)c(C(F)(F)F)c4)c3)cc2-c2ccncc2)c1",
    "assayed_target": "RXF 393 renal",
    "TGI": "4.42 µM"
  },
  {
    "compound": "Cc1cc(N(CCC#N)CCC#N)ccc1C=Nc1ccc(C(=O)NN2C(=O)/C(=C/c3ccc(N(CCC#N)CCC#N)cc3)N=C2c2cc([N+](=O)[O-])ccc2Cl)cc1",
    "assayed_target": "RXF 393 renal",
    "TGI": "> 100 µM"
  },
  {
    "compound": "CCOC(=O)C1=C(Nc2ccc(Cl)c(Cl)c2)OC/C1=N\\NS(=O)(=O)c1ccc(C)cc1",
    "assayed_target": "RXF 393 renal",
    "TGI": "> 100 µM"
  },
  {
    "compound": "CC(C)(C)S(=O)OC12CC3CC(CC(C3)C1)C2 (stereo unspecified)",
    "assayed_target": "RXF 393 renal",
    "TGI": "> 100 µM"
  },
  {
    "compound": "COc1ccc(OC)c(Nc2nc(-c3c(C)nc4sccn34)cs2)c1",
    "assayed_target": "RXF 393 renal",
    "TGI": "> 100 µM"
  },
  {
    "compound": "COc1ccc(Nc2c3ccccc3nc3[nH]c4ccccc4c23)cc1",
    "assayed_target": "RXF 393 renal",
    "TGI": "> 50 µM"
  },
  {
    "compound": "COc1cc(C2C(Cl)C(=O)N2NC(=O)c2ccc(NC(C)=O)cc2OC)ccc1O (stereo unspecified)",
    "assayed_target": "RXF 393 renal",
    "TGI": "47.4 µM"
  },
  {
    "compound": "Cc1ccccc1-n1c(C)nc(-c2ccccc2)cc1=O",
    "assayed_target": "RXF 393 renal",
    "TGI": "> 100 µM"
  },
  {
    "compound": "O=[N+]([O-])c1ccc(Cl)cc1C1SCc2nc3ccccc3n21 (stereo unspecified)",
    "assayed_target": "RXF 393 renal",
    "TGI": "73.3 µM"
  },
  {
    "compound": "O=C(/C=C(\\O)c1ccccc1)c1cc(-c2ccccc2)n(-c2ccccc2)n1",
    "assayed_target": "RXF 393 renal",
    "TGI": "> 100 µM"
  },
  {
    "compound": "CCC(=O)N/N=C(\\C=C\\c1cccc(O)c1)c1sc(Nc2ccc(C)cc2[N+](=O)[O-])nc1C",
    "assayed_target": "RXF 393 renal",
    "TGI": "> 100 µM"
  },
  {
    "compound": "N#CC(C#N)=Cn1c(=S)[nH]c2ccccc21",
    "assayed_target": "RXF 393 renal",
    "TGI": "> 100 µM"
  }
]
